- Tested on: MDA-MB-468 breast
- MEASUREMENT PROTOCOL: NCI-60 one-dose screen, 48 h (100 = growth as untreated, 0 = no growth, -100 = all killed)
- MEASUREMENT CONTEXT: 10 µM unless noted
About 83,000 compounds went through this panel and 20% of them were active in at least one assay; those are over-represented in the sample as a whole.
Entries annotated with measured growth
Field: numeric (%). Do not append units.

> print(dat)
                                   compound  assay.metric  endpoint.unit  reading
1  Clc1cccc(/C=N/Nc2nc(N/N=C/c3cccc(Cl)c3)nc(N3CCCCC3)n2)c1        growth              %     76.3
2  Cc1cccc(/C=C2\N=C(c3ccccc3)N(c3ccc(S(N)(=O)=O)cc3)C2=O)c1        growth              %     99.2
3  CCOC(=O)C1=C(CSC(=S)N(C2CCCCC2)C2CCCCC2)N(C)C(=O)NC1c1ccccc1 (stereo not given)        growth              %     47.3
4          CC(=O)Nc1ccc(OC(=O)c2ccccc2O)cc1        growth              %      117

Item under review: CCn1c(Cc2ccccc2Nc2c(Cl)cccc2Cl)nnc1SCC(=O)NN1C(=O)/C(=C/c2cc(OC)c(O)c(OC)c2)SC1=S . Reported growth?
-2.96

---

Entries annotated with measured growth
- Test system: MDA-MB-468 breast
- MEASUREMENT PROTOCOL: NCI-60 one-dose screen, 48 h (100 = growth as untreated, 0 = no growth, -100 = all killed)
- MEASUREMENT CONTEXT: 10 µM unless noted
About 83,000 compounds went through this panel and 20% of them were active in at least one assay; those are over-represented in the sample as a whole.
Field: numeric (%). Do not append units.

Solved cases below.
COMPOUND	ASSAY METRIC	READING
Nc1nc(N)c2nc3c(nc2n1)CCCCCCCCCC3	growth	58.1
COc1cccc(-c2nc(-c3ccc(NC(=O)OC(C)C)cc3)[nH]c2-c2ccnc(Br)c2)c1	growth	18.2
COc1cc2c3c(n(CCCCNCCCn4c5c(c6cc(OC)c(OC)cc6c4=O)C(=O)c4cc6c(cc4-5)OCO6)c(=O)c2cc1OC)-c1cc2c(cc1C3=O)OCO2	growth	97.7

The record that follows has no growth shown yet.
Item under review: O=C(Nc1cccc2cccnc12)c1cc(C(=O)c2ccc(Cl)cc2)n2ccc(-c3ccncc3)cc12 . Reported growth?
108

---

- Tested on: MDA-MB-468 breast
- MEASUREMENT PROTOCOL: NCI-60 one-dose screen, 48 h (100 = growth as untreated, 0 = no growth, -100 = all killed)
- MEASUREMENT CONTEXT: 10 µM unless noted
- Description: Growth inhibition of the MDA-MB-468 human Breast tumor cell line is measured as a screen for anti-cancer activity. Cells are grown in 96 well plates and exposed to the test compound for 48 hours. Compounds are tested at a single concentration, which is 10^-5 M for most compounds. The reported endpoint is percent growth (GI% or GIPRCNT), where numbers from 0 - 100% represent growth inhibition, and numbers from -100% - 0 represent cell death. […]
About 83,000 compounds went through this panel and 20% of them were active in at least one assay; those are over-represented in the sample as a whole.
ASSAY METRIC: growth (%)
Field: numeric (%). Do not append units.

> print(dat)
                                  molecule  endpoint.unit  reading
1  NCCCNc1nc2ccccc2c2c(=O)c3cc(Cl)ccc3sc12              %    -19.1

The record that follows has no growth shown yet.
Item under review: O=C(N/N=C\c1ccc(-c2ccc(Br)cc2)o1)c1cc2oc(-c3cccc(C(F)(F)F)c3)cc2[nH]1 . Reported growth?
126

---

- Test system: A549/ATCC NSCLC
- MEASUREMENT PROTOCOL: NCI-60 one-dose screen, 48 h
- MEASUREMENT CONTEXT: 10 µM
Compounds without any hit were thinned out: in the full panel of roughly 83,000, 20% have a hit. Activity calls are given as the source filed them. The calls were made as follows: active = growth percent below 10; inactive = the rest.
In this exercise, the only acceptable responses are Yes = active, No = inactive

Per the records of this test, what outcome belongs to COc1cc(C2CC(c3ccccc3)=Nc3c(N)nc(N)nc3N2)ccc1Oc1nc(NCCO)nc(N2CCOCC2)n1 (configuration not stated) ?
No

---

- System: MDA-MB-468 breast
- MEASUREMENT PROTOCOL: NCI-60 one-dose screen, 48 h (100 = growth as untreated, 0 = no growth, -100 = all killed)
- MEASUREMENT CONTEXT: 10 µM unless noted
About 83,000 compounds went through this panel and 20% of them were active in at least one assay; those are over-represented in the sample as a whole.
ASSAY METRIC: growth (%)
Field: numeric (%). Do not append units.

> print(dat)
                                   compound  reading
1  O=C1c2c(c3c4cccnc4[nH]c3c3ccc4ccccc4c23)C(=O)N1CCN1CCCCC1     29.4

Item under review: CC(C)(C)CC(C)(C)NCc1cc(C(C)(C)C)cc(CNC(C)(C)CC(C)(C)C)c1O . Reported growth?
36.2

Item under review: COc1cc2c(cc1-c1c(C)noc1C)ncc1nc(-c3ccccn3)n([C@H](C)COC(F)F)c12 . Reported growth?
46.5

Item under review: COc1cc(C(=O)/C=C/c2ccc3nc(-c4cc(F)cc(F)c4)sc3c2)cc(OC)c1OC . Reported growth?
120

Item under review: Cc1ccc2nc(-c3ccc(OCC(=O)N=Nc4c(O)[nH]c5ccccc45)cc3)[nH]c2c1 . Reported growth?
60.6

Item under review: O=C1c2c(c3c4cccnc4[nH]c3c3ccc4ccccc4c23)C(=O)N1CCN1CCOCC1 . Reported growth?
62.8

Item under review: C/C=C(/C(=O)NC(N)=O)C(C)C . Reported growth?
117

Item under review: CCOC(=O)CSc1nc2ccccc2c(=O)n1Cc1ccc(S(N)(=O)=O)cc1 . Reported growth?
105

Item under review: CCN(CC)S(=O)(=O)c1ccc(OC)c(NC(=O)c2[nH]c(C)c3c2CCCCC3=O)c1 . Reported growth?
10.7

Item under review: OCC(O)C(O)C(O)C(O)/C=N/O (centres undefined) . Reported growth?
99.5

Item under review: CO[C@@]12[C@@H]3NC3CN1C1=C(C(=O)C(N)=C(C)C1=O)[C@@H]2COC(N)=O (some centres undefined) . Reported growth?
-14.1

Item under review: CN(C)CC(O)c1ccc(/C=C/c2ccc(Cl)cc2)cc1 (centres undefined) . Reported growth?
-84.4

Item under review: CC(C)(C)c1ccc(S(=O)(=O)N[C@H]2CC[C@H]3[C@@H]4CCc5cc(O)ccc5[C@H]4CC[C@]23C)cc1 . Reported growth?
57.8

Item under review: CCN(CC)CCOc1ccc(Nc2ncc3cc(-c4ccc(O)cc4)c(=O)n(C)c3n2)cc1 . Reported growth?
44.8

Item under review: CC(C1=C(CN(C(=O)Cc2cn(-c3ccccc3)nc2-c2ccc(Cl)cc2)C(C)C)Cc2ccccc21)c1ccccn1 (centres undefined) . Reported growth?
43.8

Item under review: O=C(CCCOc1ccc(Br)cc1)Nc1ncc(Cc2ccc(F)cc2)s1 . Reported growth?
57

Item under review: CCc1ccccc1-n1c(-c2ccc(OC)cc2)cc(-c2ccc(OC)cc2)c(C#N)c1=O . Reported growth?
96.9

Item under review: C=C1C(=O)O[C@H]2[C@H]1CC/C(COC(=O)/C=C/c1cccnc1)=C\CC[C@@]1(C)O[C@@H]21 . Reported growth?
10.9

Item under review: COc1cc(C(=O)N/N=C/c2cc3cc(OCc4ccccc4)ccc3nc2OC)cc(OC)c1OC . Reported growth?
85.2

---

- System: MDA-MB-468 breast
- MEASUREMENT PROTOCOL: NCI-60 one-dose screen, 48 h
- MEASUREMENT CONTEXT: 10 µM unless noted
The panel holds about 83,000 compounds, 20% with a hit somewhere; the sample as a whole holds those more often. Calls of active or inactive are those of the source. How the source made its calls: active means growth percent below 10; inactive means the rest.
In this exercise, the only acceptable responses are active, inactive

Completed entries (count: 3):
COMPOUND	TARGET UNDER TEST	CLASSIFICATION
Fc1ccc2[nH]cc(-c3nc(-c4c[nH]c5ccncc45)cs3)c2c1	MDA-MB-468 breast	active
Cn1ccnc1C(=O)/C=C/c1ccc(CC(=O)Nc2ccc(Br)cc2)cc1	MDA-MB-468 breast	active
CCN(CC)C(=O)O/N=C(/C)c1ccccc1	MDA-MB-468 breast	inactive

Per the records of this test, what outcome belongs to COc1ccc(-c2cc3c(nn2)-c2ccccc2C3=O)cc1 ?
active

Per the records of this test, what outcome belongs to Cc1ccc(C(=O)c2oc3ccc4c(C)cc(=O)oc4c3c2C)cc1 ?
inactive

Per the records of this test, what outcome belongs to Cc1ccc(C(=O)c2ccc(CC(=O)N/N=C/c3ccccc3O)n2C)cc1 ?
inactive

Per the records of this test, what outcome belongs to O=C(COc1ccc(C2SCC(=O)N2c2ccccc2)cc1)c1ccccc1 (stereo unspecified) ?
inactive

Per the records of this test, what outcome belongs to CCCCN(CCCC)CCCNc1c2c(nc3ccc(Cl)cc13)CCCC2 ?
inactive

Per the records of this test, what outcome belongs to CC[C@]12C=CCN3CC[C@@]4(c5ccc(OC)cc5N(C)[C@H]4[C@@](O)(C(=O)OC)[C@@H]1OC(=O)CCC(=O)O[C@H]1CC[C@H]4[C@@H]5CCC6=CC(=O)CC[C@@H]6[C@H]5CC[C@]14C)[C@@H]32 ?
active

Per the records of this test, what outcome belongs to O=C(c1ccccc1)c1ccc2nc(-c3ccccc3Br)[nH]c2c1 ?
active

Per the records of this test, what outcome belongs to COc1ccc(S(=O)(=O)NCCCNc2nccc(-n3cnc4ccccc43)n2)cc1 ?
inactive

Per the records of this test, what outcome belongs to O=C(CSc1nc2ccccc2c(=O)n1-c1ccc(Cl)cc1)N/N=C/c1ccc(Oc2ccc(Cl)cc2)cc1 ?
active

Per the records of this test, what outcome belongs to Nc1nccc(=S)[nH]1 ?
inactive
